- ASSAYED SYSTEM: CYP2C19 (Homo sapiens)
- Construct: from tissue
- Sequence (P33261 whole entry): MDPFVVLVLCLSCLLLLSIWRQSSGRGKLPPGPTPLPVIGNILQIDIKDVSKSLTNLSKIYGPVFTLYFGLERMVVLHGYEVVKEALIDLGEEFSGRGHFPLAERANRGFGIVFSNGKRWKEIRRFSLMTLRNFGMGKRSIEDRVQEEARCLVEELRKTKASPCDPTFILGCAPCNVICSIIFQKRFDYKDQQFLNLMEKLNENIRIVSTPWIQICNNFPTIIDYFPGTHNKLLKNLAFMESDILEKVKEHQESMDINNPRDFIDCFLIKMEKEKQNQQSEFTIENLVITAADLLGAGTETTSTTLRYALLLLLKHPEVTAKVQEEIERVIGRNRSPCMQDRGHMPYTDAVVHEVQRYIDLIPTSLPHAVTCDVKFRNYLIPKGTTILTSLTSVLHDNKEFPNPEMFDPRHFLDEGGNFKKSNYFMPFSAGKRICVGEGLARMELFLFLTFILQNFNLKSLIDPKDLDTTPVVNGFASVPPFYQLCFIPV
- MEASUREMENT PROTOCOL: 5 in 1 CYP inhibition assay, CYP2C19
- Type: in vitro ADME
- MEASUREMENT CONDITIONS: microsomes, probe S-mephenytoin (4′-hydroxylation), test compound 10 μM, n=2, read-out: inhibition of cytochrome P450 isoform 2C19
READOUT LABEL: inhibition at 10 min, 10 µM (%)

(I) C[C@H](CC/C=C/C(=O)OC(C)(C)C)O[C@@H]1O[C@@H](C)[C@H](O)C[C@H]1O [Compound 1]
(II) C[C@H](CC/C=C/C(=O)O)O[C@@H]1O[C@@H](C)[C@H](O)C[C@H]1O [ascr #7, reference compound]
# compare inhibition at 10 min, 10 µM for I vs II ; return the one with the smaller value Please reply using the label of the selected record.
II
